conditions: in n-butyl acetate, 303.19 K
quantity-measured: solubility (mole fraction)
Give bare numbers.

Query string: Given the compound C[C@H]1[C@H](OC(=O)CCC(=O)O)O[C@@H]2O[C@@]3(C)CC[C@H]4[C@H](C)CC[C@@H]1[C@@]24OO3 , what is its reported solubility (mole fraction)?
Result string: 0.0191

* * *

settings: in methyl propionate, 303.23 K
quantity-measured: solubility (mole fraction)

Query string: Given the molecule C[C@H]1[C@H](OC(=O)CCC(=O)O)O[C@@H]2O[C@@]3(C)CC[C@H]4[C@H](C)CC[C@@H]1[C@@]24OO3 , what is its reported solubility (mole fraction)?
Result string: 0.0318
